- TARGET OF ASSAY: HNF4alpha2 (COS-7 nuclear extract) (Homo sapiens, UniProt P41235 1-474)
- Sequence: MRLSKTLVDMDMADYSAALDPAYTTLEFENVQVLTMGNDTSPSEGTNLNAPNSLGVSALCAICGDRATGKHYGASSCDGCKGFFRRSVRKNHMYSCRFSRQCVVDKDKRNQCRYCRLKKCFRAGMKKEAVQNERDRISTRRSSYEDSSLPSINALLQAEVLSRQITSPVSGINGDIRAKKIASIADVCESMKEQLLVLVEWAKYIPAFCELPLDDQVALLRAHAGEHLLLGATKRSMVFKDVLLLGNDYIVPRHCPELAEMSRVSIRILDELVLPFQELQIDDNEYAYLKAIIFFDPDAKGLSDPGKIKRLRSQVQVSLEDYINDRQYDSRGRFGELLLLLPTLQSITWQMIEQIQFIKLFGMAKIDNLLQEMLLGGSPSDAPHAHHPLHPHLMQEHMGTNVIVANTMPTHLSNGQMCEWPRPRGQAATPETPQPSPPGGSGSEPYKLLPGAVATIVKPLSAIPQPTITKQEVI
- ASSAY DETAILS: protein-binding microarray; COS-7 nuclear extract on double-stranded Agilent 4x180k PBM; binding buffer, salt, pH and temperature not given in the material; high values mean tight binding
- RUN PARAMETERS: chain copies: 2; label: 3' end of strand 1 on the slide; dsDNA, one strand shown
In all, about 18,000 sequences were measured (“log2 normalized intensity”: median about 0.39, highest 2% from about 6.6 on). The full list was thinned out, with the highest values kept by preference.
MEASUREMENT LABEL: binding signal (log2 normalized intensity)
One number for each entry, in log2 normalized intensity.

SEQ TEXT: AAAGGTCATTTCTGCTTGCAACCAAAGGAGGCCTAGGGAGATTAGAGTATCGGTCGA
TARGET OF ASSAY: HNF4alpha2 (COS-7 nuclear extract) (Homo sapiens, UniProt P41235 1-474)
binding signal / log2 normalized intensity: 1.52
//
SEQ TEXT: GTGGGAGAAAGCTTTGGACTTTGGGCTGTGGCCTAGGGAGATTAGAGTATCGGTCGA
TARGET OF ASSAY: HNF4alpha2 (COS-7 nuclear extract) (Homo sapiens, UniProt P41235 1-474)
binding signal / log2 normalized intensity: 5.72
//
SEQ TEXT: GTGGACTTTGTCCTGTGGGCTGTAAAAATCGCCTAGGGAGATTAGAGTATCGGTCGA
TARGET OF ASSAY: HNF4alpha2 (COS-7 nuclear extract) (Homo sapiens, UniProt P41235 1-474)
binding signal / log2 normalized intensity: 5.03
//
SEQ TEXT: AGTGTAAATATTTGAGGACACAAAGTGGACGCCTAGGGAGATTAGAGTATCGGTCGA
TARGET OF ASSAY: HNF4alpha2 (COS-7 nuclear extract) (Homo sapiens, UniProt P41235 1-474)
binding signal / log2 normalized intensity: 2.09

For each entry beneath this line, provide reported binding signal.
1. GCCACGGTCAGCAATGTGGACTTTGTCCTGGCCTAGGGAGATTAGAGTATCGGTCGA
2. TGACCTTTGCTCCAGTTCCCAATAATTTCCGCCTAGGGAGATTAGAGTATCGGTCGA
3. GAACCTGCCCTCTGTCCCATGGTGTACAAGGCCTAGGGAGATTAGAGTATCGGTCGA

9.67
4.46
1.26

For each entry beneath this line, provide reported binding signal.
1. GGTGAGGGTGAGGGTGAGGGTTAGGGGTTAGCCTAGGGAGATTAGAGTATCGGTCGA
2. TTAAATCCTATCCTAGGGTTAAAGTCTACAGCCTAGGGAGATTAGAGTATCGGTCGA
3. CATTTTACAGTGCCATTTATCAGTGATTTCGCCTAGGGAGATTAGAGTATCGGTCGA
4. ATGGACTTTGAAGGAGATTCCTGTGTCAGCGCCTAGGGAGATTAGAGTATCGGTCGA

1: -0.0851; 2: 4.31; 3: 0.854; 4: 0.984

###

- TARGET OF ASSAY: HNF4alpha2 (COS-7 nuclear extract) (Homo sapiens, UniProt P41235 1-474)
- Sequence: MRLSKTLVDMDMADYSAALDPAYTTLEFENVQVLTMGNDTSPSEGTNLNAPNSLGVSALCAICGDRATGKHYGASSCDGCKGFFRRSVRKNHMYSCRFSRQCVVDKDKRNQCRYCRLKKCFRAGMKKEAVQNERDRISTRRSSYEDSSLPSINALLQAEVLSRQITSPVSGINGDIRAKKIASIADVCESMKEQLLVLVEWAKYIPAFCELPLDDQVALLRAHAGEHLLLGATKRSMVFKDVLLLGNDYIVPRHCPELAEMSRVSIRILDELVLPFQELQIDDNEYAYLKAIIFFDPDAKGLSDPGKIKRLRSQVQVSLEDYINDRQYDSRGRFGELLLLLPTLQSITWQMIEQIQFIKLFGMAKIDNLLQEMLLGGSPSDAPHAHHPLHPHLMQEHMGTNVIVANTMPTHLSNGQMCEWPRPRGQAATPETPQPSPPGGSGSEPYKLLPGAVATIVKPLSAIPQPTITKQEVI
- ASSAY DETAILS: protein-binding microarray; COS-7 nuclear extract on double-stranded Agilent 4x180k PBM; binding buffer, salt, pH and temperature not given in the material; high values mean tight binding
- RUN PARAMETERS: chain copies: 2; label: 3' end of strand 1 on the slide; dsDNA, one strand shown
The full ranking holds about 18,000 sequences; the median of “log2 normalized intensity” is about 0.39, and the highest 2% start at about 6.6. This excerpt belongs to a sample that is enriched for the highest values.
MEASUREMENT LABEL: binding signal (log2 normalized intensity)
Answers are plain numbers, in log2 normalized intensity.

SEQ TEXT: ATCCTTACACAGCAGCTTTAGTCAGAGATTGCCTAGGGAGATTAGAGTATCGGTCGA
binding signal, log2 normalized intensity: -0.896

SEQ TEXT: CTTCAAGTCAGTTGCATGCAACCTTTGTCCGCCTAGGGAGATTAGAGTATCGGTCGA
binding signal, log2 normalized intensity: 5.67

SEQ TEXT: GCTCCCTCCCCTCCTCCCTTGCTCACCCCAGCCTAGGGAGATTAGAGTATCGGTCGA
binding signal, log2 normalized intensity: 5.91

SEQ TEXT: CATTGACTTTGCCTTTTGGCTAAAGTCCAAGCCTAGGGAGATTAGAGTATCGGTCGA
binding signal, log2 normalized intensity: 4.16

SEQ TEXT: TAGCACTTTGGACCTCCACTTTGGAGGGGGGCCTAGGGAGATTAGAGTATCGGTCGA
binding signal, log2 normalized intensity: 1.7

SEQ TEXT: CCATTTTGGACTTTGACCTCCAAAATTATAGCCTAGGGAGATTAGAGTATCGGTCGA
binding signal, log2 normalized intensity: 10.4

SEQ TEXT: CCTTGCCCCACCCCCCACCCCAGAAGTATGGCCTAGGGAGATTAGAGTATCGGTCGA
binding signal, log2 normalized intensity: 6.2

SEQ TEXT: GTGCTCTGGGTCTGTCCTTTGTGTTTATGGGCCTAGGGAGATTAGAGTATCGGTCGA
binding signal, log2 normalized intensity: 2.66

SEQ TEXT: TTTGGAATTGTGTCACTCCCCAGGAATGTGGCCTAGGGAGATTAGAGTATCGGTCGA
binding signal, log2 normalized intensity: 1.89

SEQ TEXT: TTAACAAGCATTTTGTTCCCATTGATCATTGCCTAGGGAGATTAGAGTATCGGTCGA
binding signal, log2 normalized intensity: 1.23

For each entry beneath this line, provide reported binding signal.
1. ACCAAGGGTCATGCTGGTCTCCTTGCCCCAGCCTAGGGAGATTAGAGTATCGGTCGA
2. CACAGCTGGACTTTGGCTGCAAAATTTGAAGCCTAGGGAGATTAGAGTATCGGTCGA

1: 1.74; 2: 3.04

Every entry's value here was drawn from paper PMC10726135.
